Every entry's value here was drawn from patent US20170320848A1.

Test description: Measurement of LogP values by HPLC on reversed phase columns (EEC directive 79/831 Annex V.A8)
Format: physicochemical
Conditions: acidic range, 0.1% formic acid in water and acetonitrile as eluent
For each record, check the reported logP (HCOOH)[a]: if it is below 4 write True, else write False.

1. O=C(NCC(F)(F)c1ccc(-c2ccc(OC(F)(F)F)cc2)cc1Cl)c1ccccc1C(F)(F)F : False
2. O=C(NCC(F)(F)c1ccc(-c2cc(F)c(F)c(F)c2)cc1Cl)c1ccccc1I : False
3. O=C(NCC(F)(F)c1ccc(-c2ccc(OC(F)(F)F)c(F)c2)cc1Cl)c1ccccc1C(F)(F)F : False
4. O=C(NCC(F)(F)c1ccc(-c2ccc(S(=O)(=O)C(F)(F)F)cc2)cc1Cl)c1ccccc1C(F)(F)F : False
5. O=C(NCC(F)(F)c1ccc(-c2ccc(Cl)c(Cl)c2)cc1Cl)c1ccccc1C(F)(F)F : False
6. O=C(NCC(F)(F)c1ccc(-c2cc(F)c(OC(F)F)c(F)c2)cc1Cl)c1ccccc1C(F)(F)F : False
7. O=C(NCC(F)(F)c1ccc(-c2ccc(F)cc2)cc1Cl)c1cccnc1I : True
8. O=C(NCC(F)(F)c1c(F)cc(-c2ccc(OC(F)(F)F)cc2)cc1F)c1ccccc1C(F)(F)F : False
9. Cc1cc(-c2ccc(C#N)cc2)ccc1C(F)(F)CNC(=O)c1ccccc1C(F)(F)F : True
10. O=C(NCC(F)(F)c1c(F)cc(-c2cccc(C(F)F)c2)cc1F)c1ccccc1C(F)(F)F : True
11. CN1CCN(c2ccc(-c3ccc(C(F)(F)CNC(=O)c4ccccc4C(F)(F)F)c(Cl)c3)cc2)CC1 : True
12. O=C(NCC(F)(F)c1ccc(-c2cc(F)c(F)c(F)c2)cc1Cl)c1ccccc1Cl : False
13. O=C(NCC(F)(F)c1ccc(-c2cc(F)c(F)c(F)c2)cc1Cl)c1ccccc1Br : False
14. O=C(NCC(F)(F)c1c(F)cc(-c2cc(F)c(F)c(F)c2)cc1F)c1ccccc1C(F)(F)F : False
15. O=C(NCC(F)(F)c1ccc(-c2ccc(C(F)(F)F)cc2)cc1Cl)c1ccccc1C(F)(F)F : False
16. Cc1cc(-c2cc(F)c(F)c(F)c2)ccc1C(F)(F)CNC(=O)c1ccccc1C(F)(F)F : False
17. Cc1cc(-c2cc(Cl)c(F)c(Cl)c2)ccc1C(F)(F)CNC(=O)c1ccccc1C(F)(F)F : False
18. O=C(NCC(F)(F)c1ccc(-c2ccc(F)cc2)cc1Cl)c1cccnc1Cl : True
19. O=C(NCC(F)(F)c1ccc(-c2ccc(F)cc2)cc1Cl)c1c(F)cccc1F : True
20. O=C(NCC(F)(F)c1c(F)cc(-c2ccc(C(F)(F)F)cc2)cc1F)c1ccccc1C(F)(F)F : False
21. O=C(NCC(F)(F)c1ccc(-c2cccc(C(F)(F)F)c2)cc1Cl)c1ccccc1C(F)(F)F : False
22. O=C(NCC(F)(F)c1ccc(-c2cccc(Cl)c2)cc1Cl)c1ccccc1C(F)(F)F : False
23. Cc1cc(-c2ccc(C(F)(F)F)cc2)ccc1C(F)(F)CNC(=O)c1ccccc1C(F)(F)F : False
24. Cc1cc(-c2cc(F)c(Cl)c(F)c2)ccc1C(F)(F)CNC(=O)c1ccccc1C(F)(F)F : False
